Target: thermolysin (Bacillus thermoproteolyticus, UniProt P00800)
Construct: gene npr
Sequence (P00800 233-548): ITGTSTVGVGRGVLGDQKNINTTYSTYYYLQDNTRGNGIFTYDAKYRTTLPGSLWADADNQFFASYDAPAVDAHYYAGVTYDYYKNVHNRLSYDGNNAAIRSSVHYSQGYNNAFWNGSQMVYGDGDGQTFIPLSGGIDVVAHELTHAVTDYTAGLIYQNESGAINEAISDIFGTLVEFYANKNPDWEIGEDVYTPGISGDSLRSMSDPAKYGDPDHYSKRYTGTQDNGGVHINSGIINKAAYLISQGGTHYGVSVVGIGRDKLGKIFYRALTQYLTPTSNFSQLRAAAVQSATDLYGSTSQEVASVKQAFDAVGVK
Assay: MicroED crystal structure (cocktail and individual soaking) and microscale thermophoresis
Assay type: binding
Counter-ions that a name gives are not always drawn.
result.type: Kd
# do not omit the unit; it follows the number

The value of Kd measured for the molecule CC(C)C[C@H](NP(=O)(O)O[C@@H]1O[C@@H](C)[C@H](O)[C@@H](O)[C@H]1O)C(=O)N[C@@H](Cc1c[nH]c2ccccc12)C(=O)O [compound 1, phosphoramidon disodium salt] turned out to be 345 nM

----------
target: thermolysin (Bacillus thermoproteolyticus); construct: gene npr; experiment: MicroED crystal structure (cocktail and individual soaking) and microscale thermophoresis; type: binding; details: read-out: Kd
result.type: Kd (µM)
Just the number please, in µM, no unit attached.

Record O=C(O)CNC(=O)C(CS)Cc1ccccc1 (stereo not shown) , field Kd: 4
